B1: RAB40B (parent)
chain: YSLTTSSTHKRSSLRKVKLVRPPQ

Variants of: B1
Assay Comment: protein stability index of a GFP-peptide fusion (GPS, HEK-293T) (PSI 1-6); higher = more stable;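 note: lentivirally expressed fusions sorted by FACS into six bins by GFP to DsRed ratio, PSI derived from sequencing read proportions per bin multiplied by bin number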
Experimental Parameters: c terminus: a fixed tail appended
Listing of recorded protein stability index by entry.
Lab note: jot the number down without any unit.

See these solved cases before continuing.
YSLTTSSTHKRPSLRKVKLVRPPQ [S12P] | 3.15
YSLTTSSTHKRSSLRKVKLVEPPQ [R21E] | 3.41
YSLTTDSTHKRSSLRKVKLVRPPQ [S6D] | 3.05

QUERY: Endpoint output: protein stability index of VSLTTSSTHKRSSLRKVKLVRPPQ [Y1V] . Value?
RESULT: 2.74
